Measured values drawn from patent US8236818B2 for this set.

measurement-target: melanocortin-4 receptor (Homo sapiens, UniProt P32245)
Construct: expressed in transfected cells; host or cells: HEK293 cells (membrane preparations)
Sequence (P32245 whole entry): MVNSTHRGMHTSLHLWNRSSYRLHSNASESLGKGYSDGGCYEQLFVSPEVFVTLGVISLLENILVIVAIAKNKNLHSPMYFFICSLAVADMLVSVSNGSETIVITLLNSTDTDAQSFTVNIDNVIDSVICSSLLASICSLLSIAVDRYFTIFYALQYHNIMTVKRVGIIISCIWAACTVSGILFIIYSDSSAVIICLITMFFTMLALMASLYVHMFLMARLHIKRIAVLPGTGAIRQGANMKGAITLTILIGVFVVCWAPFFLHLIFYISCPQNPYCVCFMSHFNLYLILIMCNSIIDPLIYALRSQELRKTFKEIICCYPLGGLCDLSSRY
protocol: Functional assay (cAMP fluorescence polarization, membrane based, agonistic activity)
Format: biochemical
condition-description: 2 h; read-out: % activation functional assay
experimental-endpoint: Emax (%)

Example entries and their recorded answers appear below.
CC(C)CCN(CCC(C)C)C(=O)c1ccc2nc(-c3ccc(Cl)cc3)c(CCCN(C)C)n2c1 [Example 20] ... -18
COc1cccc(-c2nc3ccc(C(=O)N(CCC(C)C)CCC(C)C)cn3c2CCCN(C(C)C)C(C)C)c1 [Example 60] ... 0
CCCCN(CCCC)C(=O)c1ccc2nc(-c3ccc(C#N)cc3)c(CCCN3CCCC3)n2c1 [Example 142] ... 0
CC(C)CCN(CCC(C)C)C(=O)c1ccc2nc(-c3ccc(C#N)cc3)c(CCN3CCN(C)CC3)n2c1 [Example 27] ... 0

P. CC(C)CCN(CCC(C)C)C(=O)c1ccc2nc(-c3ncco3)c(CCCN3CC[C@@H](O)C3)n2c1 [Example 71]
Q. COc1ccc(-c2nc3ccc(C(=O)N(CCC(C)C)CCC(C)C)cn3c2CCCN2CCCC2)cn1 [Example 82]
Which item exceeds the other in Emax, P or Q ? Lab log: write the label of the selected item as the result.
P

---

measurement-target: melanocortin-4 receptor (Homo sapiens, UniProt P32245)
Construct: expressed in transfected cells; host or cells: HEK293 cells (membrane preparations)
protocol: Functional assay (cAMP fluorescence polarization, membrane based, agonistic activity)
Type: biochemical
condition-description: agonistic activity, cAMP, HEK293 membrane preparations; read-out: hMC-4R functional assay EC50/μM
experimental-endpoint: EC50

Which EC50 is listed for `CC(C)CCN(CCC(C)C)C(=O)c1ccc2nc(-c3cccnc3N)c(CCCN3CCCC3)n2c1` ?
> 1 µM

Which EC50 is listed for `CC(C)CCN(CCC(C)C)C(=O)c1ccc2nc(-c3ccc(=O)n(CCCO)c3)c(CCCN3CCCC3)n2c1` ?
0.1 to 1 µM

Which EC50 is listed for `CC(C)CCN(CCC(C)C)C(=O)c1ccc2nc(-c3ccc(Cl)cc3)c(CCCN(C)C)n2c1` ?
< 0.1 µM

Which EC50 is listed for `CC(C)CCN(CCC(C)C)C(=O)c1ccc2nc(-c3cc[nH]c(=O)c3)c(CCCN3CCCC3)n2c1` ?
< 0.1 µM

---

measurement-target: melanocortin-4 receptor (Homo sapiens, UniProt P32245)
Construct: expressed in transfected cells; host or cells: HEK293 cells (membrane preparations)
protocol: Functional assay (cAMP fluorescence polarization, membrane based, agonistic activity)
Type: biochemical
condition-description: 2 h; read-out: % activation functional assay
experimental-endpoint: Emax (%)

Example entries and their recorded answers appear below.
COc1cccc(-c2nc3ccc(C(=O)N(CCC(C)C)CCC(C)C)cn3c2CN2CCC(N)CC2)c1 ... 0
CC(C)CCN(CCC(C)C)C(=O)c1ccc2nc(-c3ccc(Cl)cc3)c(CCCN)n2c1 ... 0
COc1cccc(-c2nc3ccc(C(=O)N(CCC(C)C)CCC(C)C)cn3c2CCCN2CC[C@H](F)C2)c1 ... 0
CC(C)CCN(CCC(C)C)C(=O)c1ccc2nc(-c3cccc(Cl)c3)c(CN3CCC(N)CC3)n2c1 ... 0

a. CC(C)CCN(CCC(C)C)C(=O)c1ccc2nc(-c3ccncc3)c(CCCN3CCCC3)n2c1
b. CC(C)CCN(CCC(C)C)C(=O)c1ccc2nc(-c3cccnc3N)c(CCCN3CCCC3)n2c1
Which item exceeds the other in Emax, a or b ? Lab log: write the label of the selected item as the result.
a

1. CC(C)CCN(CC(C)C)C(=O)c1ccc2nc(-c3ccc(C#N)cc3)c(CN3CCC(N)CC3)n2c1
2. CC(=O)OCCn1cc(-c2nc3ccc(C(=O)N(CCC(C)C)CCC(C)C)cn3c2CCCN2CCCC2C)ccc1=O (stereo not drawn)
3. CC(C)CCN(CCC(C)C)C(=O)c1ccc2nc(-c3ncco3)c(CCCN3CC(O)C3)n2c1
Ascending by Emax, please. The reply should contain the labels ordered as requested.
2, 3, 1

P. CC(C)CCN(CCC(C)C)C(=O)c1ccc2nc(-c3ccc(Cl)cc3)c(CN3CCCC(N)C3)n2c1 (stereo not drawn)
Q. CC(=O)OCCn1cc(-c2nc3ccc(C(=O)N(CCC4CC4)CCC4CC4)cn3c2CCCN2CCCC2C)ccc1=O (stereo not drawn)
R. CC(C)CCN(CCC(C)C)C(=O)c1ccc2nc(-c3ncco3)c(CCCN3CC[C@H](O)C3)n2c1
S. COc1ccc(-c2nc3ccc(C(=O)N(CCC(C)C)CCC(C)C)cn3c2CCCN(C)C)cn1
T. CC(C)CCN(CCC(C)C)C(=O)c1ccc2nc(-c3ccc(OCCO)nc3)c(CCCN3CCCC3C)n2c1 (stereo not drawn)
Ascending by Emax, please. The reply should contain the labels ordered as requested.
R, Q, T, S, P

---

measurement-target: melanocortin-4 receptor (Homo sapiens, UniProt P32245)
Construct: expressed in transfected cells; host or cells: HEK293 cells (membrane preparations)
protocol: Functional assay (cAMP fluorescence polarization, membrane based, agonistic activity)
Type: biochemical
condition-description: 2 h; read-out: % activation functional assay
experimental-endpoint: Emax (%)

CC(C)CCN(CCC1CC1)C(=O)c1ccc2nc(-c3ccc(C#N)cc3)c(CCCN3CCCC3)n2c1 ... 0
CCN(C)CCCc1c(-c2cccc(OC)c2)nc2ccc(C(=O)N(CCC(C)C)CCC(C)C)cn12 ... 0
CC(C)CCN(CCC(C)C)C(=O)c1ccc2nc(-c3ccc(C(=O)O)cc3)c(CCCN3CCCC3)n2c1 ... -1
CC(C)CCN(CCC(C)C)C(=O)c1ccc2nc(-c3nccs3)c(CCCN(C)C)n2c1 ... 0
C#CCN(C)CCCc1c(-c2cccc(OC)c2)nc2ccc(C(=O)N(CCC(C)C)CCC(C)C)cn12 ... 0

1. CC(C)CCN(CCC(C)C)C(=O)c1ccc2nc(-c3ncco3)c(CCCN3CC[C@@H](F)C3)n2c1
2. CC(C)CN(CC(C)C)C(=O)c1ccc2nc(-c3ccc(C#N)cc3)c(CCCN3CCCC3)n2c1
Smaller Emax value? Options are 1 and 2 Lab log: write the label of the selected item as the result.
2
(2: 0%, 1: 2%)

---

measurement-target: melanocortin-4 receptor (Homo sapiens, UniProt P32245)
Construct: expressed in transfected cells; host or cells: HEK293 cells (membrane preparations)
protocol: Membrane binding assay (fluorescence polarization, competition with fluorescence labeled NDP-alpha-MSH)
condition-description: read-out: hMC-4R binding assay IC50/μM
Collected IC50 values appear next to each entry.

CC(C)CCN(CCC(C)C)C(=O)c1ccc2nc(-c3ccc(C(N)=O)cc3)c(CCCN3CCCC3)n2c1 ... < 0.1 µM
COc1cccc(-c2nc3ccc(C(=O)N(CCC(C)C)CCC(C)C)cn3c2CCCN2CCCC2)c1 ... < 0.1 µM
CC(C)CCN(CCC(C)C)C(=O)c1ccc2nc(-c3cccs3)c(CN3CCC(N)CC3)n2c1 ... 0.1 to 1 µM
CC(C)CCN(CCC(C)C)C(=O)c1ccc2nc(-c3ncco3)c(CCCN(C)C(C)C)n2c1 ... < 0.1 µM
CC(C)CCN(CCC(C)C)C(=O)c1ccc2nc(-c3ccc(C#N)cc3)c(CCN3CCN(C)CC3)n2c1 ... > 1 µM
CC(C)CCN(CCC(C)C)C(=O)c1ccc2nc(-c3ccc(C(=O)N(C)C)cc3)c(CCCN3CCCC3)n2c1 ... 0.1 to 1 µM
CC(C)CCN(CCC(C)C)C(=O)c1ccc2nc(-c3ncco3)c(CCCN(C)C)n2c1 ... 0.1 to 1 µM
CC(C)CCN(CCC(C)C)C(=O)c1ccc2nc(-c3ccc(Cl)cc3)c(CN3CCCC(N)C3)n2c1 (stereo not drawn) ... > 1 µM

Tell me reported IC50 for `CC(C)CCN(CCC(C)C)C(=O)c1ccc2nc(-c3ccc(Cl)cc3)c(CCCN(C)C)n2c1` , tested with melanocortin-4 receptor (Homo sapiens, UniProt P32245).
0.1 to 1 µM

Tell me reported IC50 for `COc1cccc(-c2nc3ccc(C(=O)N(CCC(C)C)CCC(C)C)cn3c2CCCN2CC[C@H](F)C2)c1` , tested with melanocortin-4 receptor (Homo sapiens, UniProt P32245).
< 0.1 µM

Tell me reported IC50 for `COc1ccc(-c2nc3ccc(C(=O)N(CCC(C)C)CCC(C)C)cn3c2CN2CCC(N)CC2)cc1OC` , tested with melanocortin-4 receptor (Homo sapiens, UniProt P32245).
0.1 to 1 µM

Tell me reported IC50 for `CC(C)CCN(CCC(C)C)C(=O)c1ccc2nc(-c3ccc4c(c3)CCC(=O)N4)c(CCCN3CCCC3)n2c1` , tested with melanocortin-4 receptor (Homo sapiens, UniProt P32245).
< 0.1 µM

---

measurement-target: melanocortin-4 receptor (Homo sapiens)
Construct: expressed in transfected cells; host or cells: HEK293 cells (membrane preparations)
protocol: Membrane binding assay (fluorescence polarization, competition with fluorescence labeled NDP-alpha-MSH)
condition-description: read-out: hMC-4R binding assay IC50/μM
experimental-endpoint: IC50

Example entries and their recorded answers appear below.
CC(=O)OCCn1cc(-c2nc3ccc(C(=O)N(CCC(C)C)CCC(C)C)cn3c2CCCN2CCCC2)ccc1=O ... < 0.1 µM
CC(=O)OCCn1cc(-c2nc3ccc(C(=O)N(CCC4CC4)CCC4CC4)cn3c2CCCN2CCCC2)ccc1=O ... 0.1 to 1 µM
COc1ccc(-c2nc3ccc(C(=O)N(CCC(C)C)CCC(C)C)cn3c2CCCN(C)C)cn1 ... < 0.1 µM
CC(C)CCN(CC(C)C)C(=O)c1ccc2nc(-c3ccc(C#N)cc3)c(CN3CCC(N)CC3)n2c1 ... 0.1 to 1 µM
COc1ccc(-c2nc3ccc(C(=O)N(CCC(C)C)CCC(C)C)cn3c2CCCN2CCCC2)cc1 ... < 0.1 µM

Consider now this further molecule.
Which IC50 is listed for `COc1ccc(-c2nc3ccc(C(=O)N(CCC(C)C)CCC(C)C)cn3c2CN2CCC(N)CC2)cc1` ?
0.1 to 1 µM
